- PROTOCOL_DETAILS: Acute oral toxicity in rats
- RUN_PARAMETERS: rat, in vivo

COMPOUND: CNC(=O)Nc1nnc(C(F)(F)F)s1 [Example 1]
LD50: 436 mg/kg
//
COMPOUND: CNC(=O)Nc1nnc(C(C)(C)C)s1 [Example 86]
LD50: 2700 mg/kg

---

- Test system: Bean (BN)
- PROTOCOL_DETAILS: Post-emergence herbicide test
- Type: in vivo, Phaseolus vulgaris var. Black Valentine
- RUN_PARAMETERS: Phaseolus vulgaris, post-emergence, 336 h; 8 lb/acre; two weeks after treatment
Measured pest or weed control at 8966.8 g/ha, listed per entry for reference.
READOUT_TYPE: pest or weed control at 8966.8 g/ha (%)

MOL: CC(C)NC(=O)Nc1nnc(C(F)(F)F)s1
QUANTITATIVE_READOUT: 50
--
MOL: CNC(=O)N(C)c1nnc(SC)s1
QUANTITATIVE_READOUT: 100
--
MOL: CCN(C(=O)NC)c1nnc(C(F)(F)F)s1
QUANTITATIVE_READOUT: 100
